Entry source: PubChem BioAssay AID720717

Tested on: LANA (ORF73) N-terminal peptide binding to nucleosomes, Human herpesvirus 8
test summary: LANA N-terminal peptide–nucleosome interaction blockers – biochemical, fluorescence polarization, FITC-LANA1-23, chicken nucleosomes, primary screen (AID 720717)
assay conditions: FITC-LANA1-23 / chicken nucleosome fluorescence polarization; stronger effect = lower value
Out of some 51,000 compounds screened, about 150 (0.29%) were called active. Only a selection was taken, and actives are over-represented in it overall.
Criterion: z-score strictly under -0.3. Met: 1 (yes). Not met: 0 (no).

{"compound": "Cc1cccc2cnn(CC(=O)N3CCc4ccccc4C3)c12", "class assignment": "0 (no)"}
{"compound": "COc1cccc(N2C(=O)C=CC2=O)c1", "class assignment": "0 (no)"}
{"compound": "C=C(C)Cn1nc(C)c(-c2cc(C(=O)O)[nH]n2)c1C", "class assignment": "0 (no)"}
{"compound": "Cc1nnc(NC2CC2)c2c1nnn2Cc1ccc(F)cc1", "class assignment": "0 (no)"}
{"compound": "COc1cc(-c2nc3ccccn3c2NC2CCCC2)ccc1O", "class assignment": "1 (yes)"}
{"compound": "O=C(O)c1ccc(Sc2ccccc2C(=O)O)c(C(=O)O)c1", "class assignment": "0 (no)"}
{"compound": "Nc1c2c3c(sc2nc(=O)n1Cc1ccco1)CCC3", "class assignment": "0 (no)"}
{"compound": "O=C(COc1ccccc1)n1c(=O)oc2ccccc21", "class assignment": "1 (yes)"}
{"compound": "Cc1sc(-c2cccs2)nc1O", "class assignment": "1 (yes)"}
{"compound": "CCOC(=O)NCc1cc(C(=O)O)ccc1O", "class assignment": "0 (no)"}
{"compound": "Cc1ccc(C(=O)N2CCCN(C)CC2)o1", "class assignment": "1 (yes)"}
{"compound": "O=S(=O)(c1cnc[nH]1)N1CCN(Cc2ccccc2)CC1", "class assignment": "1 (yes)"}
{"compound": "Cc1[nH][nH]c(=O)c1C(c1cccc(Cl)c1)C(C#N)C#N (stereo not drawn)", "class assignment": "1 (yes)"}
{"compound": "Cc1ccccc1NC(=O)N1CC(C)CC(C)C1 (stereo not drawn)", "class assignment": "1 (yes)"}
{"compound": "COC(=O)c1ccccc1NC(=O)C(F)(F)F", "class assignment": "1 (yes)"}
{"compound": "COc1cccc(NC(=O)c2nn(C)c3c2COc2ccccc2-3)c1", "class assignment": "1 (yes)"}
{"compound": "CCN(CC)C(=O)Cc1c(C(=O)O)[nH]c2ccc(Cl)cc12", "class assignment": "0 (no)"}
{"compound": "CCOC(=O)c1nn(-c2ccccc2)c(C(=O)OCC)c1N(C(=O)CC)C(=O)CC", "class assignment": "0 (no)"}
